Values from PubChem BioAssay

target: E3 ubiquitin-protein ligase XIAP (Homo sapiens); test: small molecules binding XIAP protein – biophysical, small-molecule microarray, fluorescence 635 nm, primary screen (AID 1181); settings: higher = more signal;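 note: score merges 667 nm emission and signal to noise over triplicate slides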
# composite z-score per entry
Number, no unit, nothing else.

Study these solved cases before continuing.
CO[C@H]1O[C@H](CO)[C@@H](OC(=O)Nc2ccccc2)[C@H](OC(=O)Nc2ccccc2)[C@H]1OC(=O)Nc1ccccc1 :: -0.0125
CC1CC/C=C\[C@H]2OC34C=CCN(Cc5ccccc5)C(=O)[C@H]3N(CCCCCCO)C(=O)[C@@H]4C2C(=O)O1 (some centres not stated) :: -0.0741
CN(C)CCCCNC(=O)[C@H]1C[C@H]2C(=O)N3CCC[C@H]3C(=O)N2[C@H]1c1cccc(OCCO)c1 :: 0.906
COc1ccc([Si](C)(C)[C@@H]2[C@@H](CC(=O)N3Cc4ccccc4C[C@H]3CO)O[C@]3(C(=O)N(Cc4cccc(N5CCOC5=O)c4)c4ccccc43)[C@H]2C)cc1 :: -0.13
COC(=O)[C@@]1(Cc2ccccc2)[C@H]2c3cc(C(=O)N(C)C)n(CCO)c3C[C@H]2CN1C(=O)c1ccccc1 :: -0.0152
CC(C)NC(=O)[C@@H]1c2ccccc2C(=O)N(Cc2ccccc2C(F)(F)F)[C@H]1c1ccc(CO)cc1 :: -0.135

Q: Quick check: composite z-score of C=C(CCCC)/C(=C/C[C@H](OC(=O)c1ccncc1)c1ccccc1OCCO)c1cc(C(=O)OC)ccc1OC ?
Ans: -0.184
